meta.source: patent US6995177B1

target: HCV NS3 protease (Hepatitis C virus genotype 1b, UniProt P26662); assay: Microplate protease activity assay; type: biochemical, hepatitis C virus (J strain); details: Table II; inhibition of HCV NS3 protease, co-factor Pep4AK, tritiated substrate
Sequence (P26662 1027-1206, other chains not shown): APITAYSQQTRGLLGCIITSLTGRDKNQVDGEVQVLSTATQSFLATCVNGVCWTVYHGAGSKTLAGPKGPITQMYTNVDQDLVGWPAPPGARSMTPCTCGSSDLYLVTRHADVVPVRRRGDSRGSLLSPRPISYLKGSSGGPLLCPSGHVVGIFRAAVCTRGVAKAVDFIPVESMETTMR
value.kind: IC50 (µM)
Answers are plain numbers, in µM.

Study these solved cases before continuing.
[[record]]
cpd_smiles = "CC(C)C[C@H](NC(=O)[C@H](CC(=O)O)NC(=O)[C@@H](NC(=O)[C@@H]1CCCC[C@H]1C(=O)O)c1cccc(OC(=O)[C@@H]2CCCC[C@H]2C(=O)O)c1)C(N)=O"
measurement_target = "HCV NS3 protease (Hepatitis C virus genotype 1b, UniProt P26662)"
value_kind = "IC50"
units_of_measure = "µM"
reading = 35

[[record]]
cpd_smiles = "CC(C)C[C@H](NC(=O)[C@H](CC(=O)O)NC(=O)[C@@H](NC(=O)[C@@H]1CCCC[C@H]1C(=O)O)c1ccc(Cl)cc1)C(N)=O"
measurement_target = "HCV NS3 protease (Hepatitis C virus genotype 1b, UniProt P26662)"
value_kind = "IC50"
units_of_measure = "µM"
reading = 37


Below: the item to evaluate.
So what's the measured IC50 for this one? CC(C)C[C@H](NC(=O)[C@H](CC(=O)O)NC(=O)[C@@H](NC(=O)[C@@H]1CCCC[C@H]1C(=O)O)c1ccc(Br)cc1)C(N)=O
26

* * *

Task for the reader: assign each of the following compounds its reported IC50.
target: HCV NS3 protease (Hepatitis C virus genotype 1b, UniProt P26662); test: Microplate protease activity assay; type: biochemical, hepatitis C virus (J strain); conditions: Table III; inhibition of HCV NS3 protease, co-factor Pep4AK, tritiated substrate
Answers are plain numbers, in µM.

Below, 2 compounds whose answers are already recorded.
[[record]]
cpd_smiles = "CC(C)C[C@H](NC(=O)[C@H](CCC(=O)O)NC(=O)[C@H](CC1CCCCC1)NC(=O)[C@@H]1CCCC[C@H]1C(=O)O)C(N)=O"
reading = 41

[[record]]
cpd_smiles = "CC(C)C[C@H](NC(=O)[C@H](CC(=O)O)N(C)C(=O)[C@H](CC1CCCCC1)NC(=O)c1ccccc1C(=O)O)C(N)=O"
reading = 115


Turning now to a further record.
Look up IC50: CC(C)C[C@H](NC(=O)[C@H](CC(=O)O)N(C)C(=O)[C@H](CC1CCCCC1)NC(=O)[C@@H]1CCCC[C@H]1C(=O)O)C(N)=O
100

* * *

Please respond with reported IC50 for every item in the list.
molecular target: HCV NS3 protease (Hepatitis C virus genotype 1b, UniProt P26662); assay: Microplate protease activity assay; assay type: biochemical, hepatitis C virus (J strain); settings: Table IV; inhibition of HCV NS3 protease, co-factor Pep4AK, tritiated substrate
Answers are plain numbers, in µM.

The cases that follow already have their IC50 on record.
[[record]]
molecule = "NC(=O)CCN(CCC(c1ccccc1)c1ccccc1)C(=O)[C@@H](NC(=O)[C@H]1CCCC[C@@H]1C(=O)O)c1ccc(Br)cc1 [Example 25]"
units_of_measure = "µM"
reading = 59

[[record]]
molecule = "O=C(O)CCN(CCC(c1ccccc1)c1ccccc1)C(=O)[C@H](CC1CCCCC1)NC(=O)[C@@H]1CCCC[C@H]1C(=O)O [Example 20]"
units_of_measure = "µM"
reading = 55

[[record]]
molecule = "CCOC(=O)CCN(CCC(c1ccccc1)c1ccccc1)C(=O)[C@@H](NC(=O)[C@H]1CCCC[C@@H]1C(=O)O)c1ccc(Br)cc1 [Example 24]"
units_of_measure = "µM"
reading = 60

[[record]]
molecule = "COc1ccc(CCN(CCC(=O)O)C(=O)[C@@H](NC(=O)[C@@H]2CCCC[C@H]2C(=O)O)c2ccccc2)cc1OC [Example 31]"
units_of_measure = "µM"
reading = 123

[[record]]
molecule = "O=C(O)CCN(CC(c1ccccc1)c1ccccc1)C(=O)[C@@H](NC(=O)[C@@H]1CCCC[C@H]1C(=O)O)c1ccccc1 [Example 29]"
units_of_measure = "µM"
reading = 39

[[record]]
molecule = "O=C(O)CCN(CCc1ccc(Cl)cc1Cl)C(=O)[C@@H](NC(=O)[C@@H]1CCCC[C@H]1C(=O)O)c1ccccc1 [Example 30]"
units_of_measure = "µM"
reading = 49


Turning now to a further molecule:
Give HCV NS3 protease (Hepatitis C virus genotype 1b, UniProt P26662) IC50 for O=C(O)CCN(CCc1ccccc1Cl)C(=O)[C@@H](NC(=O)[C@@H]1CCCC[C@H]1C(=O)O)c1ccccc1F [Example 28]
70
